Molecular target: HS-PPTase (AASDHPPT) (Homo sapiens, UniProt Q9NRN7)
Sequence (Q9NRN7 1-309): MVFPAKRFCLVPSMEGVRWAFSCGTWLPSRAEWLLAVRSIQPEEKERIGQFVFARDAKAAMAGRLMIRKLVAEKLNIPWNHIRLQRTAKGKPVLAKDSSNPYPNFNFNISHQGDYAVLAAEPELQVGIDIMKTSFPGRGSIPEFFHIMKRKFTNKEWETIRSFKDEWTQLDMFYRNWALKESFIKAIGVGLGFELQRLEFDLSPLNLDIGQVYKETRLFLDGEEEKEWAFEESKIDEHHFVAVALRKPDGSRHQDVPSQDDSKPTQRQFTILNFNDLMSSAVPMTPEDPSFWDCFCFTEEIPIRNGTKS
pIC50: −log10 of the molar value.
assayMetric: pIC50

## Input Requested field: pIC50. Item: O=Nc1ccc2oc(=O)ccc2c1
## Output < 3.70

* * *

Target: PptA (AFPptA; AFPptA-GST) (Aspergillus fumigatus)
Construct: gene AFUB_024520
Sequence (B0XWE4 entry or part of it): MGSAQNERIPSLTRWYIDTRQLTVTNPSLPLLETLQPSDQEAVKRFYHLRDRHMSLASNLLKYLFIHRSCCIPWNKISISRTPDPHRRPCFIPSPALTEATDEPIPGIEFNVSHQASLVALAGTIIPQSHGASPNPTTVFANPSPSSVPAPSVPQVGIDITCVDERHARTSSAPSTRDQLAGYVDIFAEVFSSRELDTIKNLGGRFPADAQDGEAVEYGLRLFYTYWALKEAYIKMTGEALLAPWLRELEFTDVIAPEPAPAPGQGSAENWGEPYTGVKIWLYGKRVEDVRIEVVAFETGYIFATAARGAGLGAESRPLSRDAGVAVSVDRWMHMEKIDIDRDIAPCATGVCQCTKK
Assay: fluorescence polarization, transfer of BODIPY-TMR-labelled phosphopantetheine from CoA to AarA
Type: biochemical
Listing of recorded pIC50 by entry.
Worth noting: pIC50 values are minus log10 of concentrations stated in mol/L.

>  <cpdSmiles>
N=C1Sc2ccccc2C2=NCCCN12

>  <testedSystem>
PptA (AFPptA; AFPptA-GST) (Aspergillus fumigatus)

>  <pIC50>
5.41

$$$$

## Input Requested field: pIC50. Item: O=Nc1ccc2oc(=O)ccc2c1
## Output 4.45

* * *

Molecular target: PptA (AFPptA; AFPptA-GST) (Aspergillus fumigatus)
Construct: gene AFUB_024520
Assay: fluorescence polarization, transfer of BODIPY-TMR-labelled phosphopantetheine from CoA to AarA
Format: biochemical
Settings: acceptor A. fumigatus AarA 750 ng, BODIPY-TMR-CoA, 62.5 mM bis-Tris pH 6.5, 12.5 mM Mg chloride, room temperature, 100 ng PptA, triplicate, doubling dilutions from 100 µM
assayMetric: IC50 (µM)
All answers are understood in µM, so give the number only.

## Input Requested field: IC50. Item: Clc1ccc(C(c2ccc(Cl)cc2)n2cc[n+](CC(OCc3ccc(Cl)cc3Cl)c3ccc(Cl)cc3Cl)c2)cc1 (stereo not shown) [calmidazolium chloride]
## Output 19.2
